Where do the numbers come from? From PubChem BioAssay (EPA / NIEHS).

read-out: Monokine induced gamma interferon (MIG), CXCL9 (gene 4283); test: BSK_hDFCGF_MIG: BioMAP Diversity Plus: hDFCGF Assay for Monokine induced gamma interferon (MIG) Biomarker Activity (AID 2283063); details: primary human foreskin fibroblasts; actives raise or lower the signal
The source made the active and inactive calls. Rule for the calls: active = hit-call score of the fitted dose curve at least 0.9, where 1 is the maximum; inactive = score below 0.9.
// classify into active, inactive

// known answers, use as guide
{"COMPOUND": "CCOP(=S)(OCC)SCCSCC", "LABEL": "inactive"}
{"COMPOUND": "S=C1NCCN1", "LABEL": "inactive"}
{"COMPOUND": "O=c1ccc(=O)[nH][nH]1", "LABEL": "inactive"}

stdin: Tell me the recorded outcome of this test for COP(=O)(NC(C)=O)SC (centres undefined) .
stdout: inactive

stdin: Tell me the recorded outcome of this test for COP(=O)(OC)SCn1c(=O)oc2cc(Cl)cnc21 .
stdout: active

stdin: Tell me the recorded outcome of this test for CSC1=N[C@@](C)(c2ccccc2)C(=O)N1Nc1ccccc1 .
stdout: inactive

stdin: Tell me the recorded outcome of this test for CCOP(=S)(OCC)OC(Cl)C(Cl)(Cl)Cl (centres undefined) .
stdout: inactive

stdin: Tell me the recorded outcome of this test for COc1ccc(C(=CC(=O)N2CCOCC2)c2ccc(Cl)cc2)cc1OC .
stdout: inactive

stdin: Tell me the recorded outcome of this test for C#CC(C)(C)NC(=O)c1cc(Cl)cc(Cl)c1 .
stdout: inactive

stdin: Tell me the recorded outcome of this test for Cc1ccn2nc(S(=O)(=O)Nc3c(F)cccc3F)nc2n1 .
stdout: inactive

stdin: Tell me the recorded outcome of this test for CSc1nnc(C(C)(C)C)c(=O)n1N .
stdout: inactive

stdin: Tell me the recorded outcome of this test for CCOP(=O)(SC(C)CC)N1CCSC1=O (centres undefined) .
stdout: inactive

stdin: Tell me the recorded outcome of this test for CCCCOC(=O)c1ccccc1C(=O)O .
stdout: inactive

stdin: Tell me the recorded outcome of this test for CCc1cnc(C2=NC(C)(C(C)C)C(=O)N2)c(C(=O)O)c1 (centres undefined) .
stdout: inactive
